tested on: CEM cells HIV-1 protection, formazan growth assay; assay: NCI AIDS Antiviral Assay; conditions: measured here: growth of uninfected CEM cells
pIC50: −log10 of the molar value.
MEASURED_QUANTITY: pIC50

Example cases with answers are listed next.
- COc1ccc(NC(=O)CC/C(CC(=O)C(C)(C)C)=N\NC(=O)C(N)=O)cc1: < 4.03
- CCN=C(NC(=O)c1ccc(F)cc1)SCSC(=NCC)NC(=O)c1ccc(F)cc1: < 3.70
- Cc1c2ccccc2nc(CS(C)=O)[n+]1[O-] (stereo not given): < 3.70

Value of pIC50 reported for the compound `C#CCOCn1cnc2ncnc(N)c21` is < 2.91

Value of pIC50 reported for the compound `C/C(=N/OC(=O)N(C)C)c1cccs1` is < 3.70
